Tested on: HT-29
Test: NCI tumour cell line growth inhibition, 48 h
Activity calls are given as the source filed them. No stated cut-off is given here; in the data, active = GI50 up to about 1.1 µM and inactive = higher.
Assign a class; possible classes are active, inactive

Name the outcome recorded for COC1/C=C/C(C)C(C(C)C(OC)C(C)CCC(=O)C(C)C(CC(=O)O)OC)OC(=O)/C=C/C=C(\C)CC(OC)CC2=CC(=O)O[C@H](C2)C(C)C(OC)CC(OC)/C=C/C(C)C(OC)C1 (some centres not stated) in the assay.
active

What would you report for C=C(C(=C)P(=S)(C(C)C)C(C)C)P(=S)(C(C)C)C(C)C ?
inactive

What would you report for Cc1nnc(N/N=C2/C(=O)Nc3ccccc32)nc1O ?
inactive

What would you report for O=C1/C(=C/c2ccc(O)cc2)CCc2ccccc21 ?
inactive

What would you report for COc1cccc(CC(C)NCC(O)c2ccc(O)c(O)c2)c1 (configuration not stated) ?
inactive

What would you report for Nc1nc(Cl)nc2c1ncn2C1CC(O)C(CO)O1 (configuration not stated) ?
inactive

What would you report for O=C1CCCN1CCC/N=c1/cc2n(-c3ccc(Cl)cc3)c3ccccc3nc-2cc1Nc1ccc(Cl)cc1 ?
inactive

What would you report for Cc1cc2c(c(=O)n1C)SCC2 ?
inactive

What would you report for S=C(N1CCN(c2cccc(Cl)c2)CC1)N1CCN(c2cccc(Cl)c2)CC1 ?
inactive

What would you report for COc1ccccc1C(=O)c1c(N2CCCCC2)c(=O)c1=O ?
inactive

What would you report for CC1(C)C2CCC3(C2)CS(=O)(=O)N2OC231 (configuration not stated) ?
inactive

What would you report for Cc1nc2ccccc2[s+]c1-c1cnc(NC#N)nc1C(=O)Nc1cccc(Cl)c1 ?
inactive

What would you report for COc1cc2c(cc1OC)C1Cc3cc(OC)c(OC)cc3N1CC2 (configuration not stated) ?
inactive

What would you report for Cc1nc2c(o1)C(=O)c1ccccc1/C2=N/C1CCCCC1N (configuration not stated) ?
inactive

What would you report for Cc1cccc(NC(=O)CC(=O)N2N=C(N3c4ccccc4Sc4ccccc43)CC2c2ccccc2)c1 (configuration not stated) ?
inactive

What would you report for Brc1ccccc1/C=N\C12CC3CC(CC(C3)C1)C2 ?
inactive

What would you report for CC(=O)O[C@@H]1C2=C(C)C=C(O2)[C@H]2O[C@]2(C)C[C@H]2C=C(C(=O)O2)[C@H](OC(C)=O)CC1[C@@]1(C)CO1 (some centres not stated) ?
inactive

What would you report for O=C(O)Cc1ccc([N+](=O)[O-])cc1[N+](=O)[O-] ?
inactive

What would you report for COc1cc(C(=O)/C=C/c2ccc(OCC#N)cc2)cc(OC)c1OC ?
inactive

What would you report for CSC(=O)/C=C1\SS/C(=C\C(=O)SC)S1 ?
inactive

What would you report for CCOC(=O)Cc1csc(Nc2ccccc2[N+](=O)[O-])n1 ?
inactive

What would you report for O=[N+]([O-])C(=C/c1cccs1)/C(=C\c1cccs1)[N+](=O)[O-] ?
inactive

###

System: Hs-578T
Assay: NCI tumour cell line growth inhibition, 48 h
Active and inactive are the calls of the source. Rule as the data show it: active = GI50 up to about 1.1 µM and inactive = higher.
Assign a class; possible classes are active, inactive

Name the outcome recorded for CCN(CCCl)c1cc(CN(C)C)cc(NC(=O)c2cc(C(=O)Nc3cc(CN(C)C)cc(N(CC)CCCl)c3)n(C)n2)c1 in the assay.
active

What would you report for Cc1cc2c([N+](=O)[O-])cc3c(c2o1)C(=O)C=CC3=O ?
inactive

What would you report for CC(C)=CCC[C@@H](C)c1c2nc3ccccc3[nH]c-2c(C)c(=O)c1O ?
inactive

What would you report for CC1CN(c2cc3c(cc2F)c(=O)c(C(=O)O)cn3-c2ccc(N3CCN(C)CC3)cn2)CC(C)N1 (centres undefined) ?
inactive

What would you report for O=C(Nc1cccc2cnccc12)c1cc2c(cc1Cl)Sc1nccn1S2(=O)=O ?
inactive

What would you report for CCOC(=O)C(NC(=O)c1ccco1)(Nc1nc2ccc(OCC)cc2s1)C(F)(F)F (centres undefined) ?
inactive

What would you report for N=C(N)SCCSC(=N)N ?
inactive

What would you report for N#Cc1ccccc1OCCOc1ccccc1C#N ?
inactive

What would you report for CNC(=O)C1(C#N)C(c2ccccc2)C(C#N)(C(=O)NC)C1c1ccccc1 (centres undefined) ?
inactive
